Values were extracted from patent US11197862B2.

- assay.target: OCT2 over OCT3, MATE1 and MATE2K (Homo sapiens, UniProt O15244)
- Sequence (O15244 1-555): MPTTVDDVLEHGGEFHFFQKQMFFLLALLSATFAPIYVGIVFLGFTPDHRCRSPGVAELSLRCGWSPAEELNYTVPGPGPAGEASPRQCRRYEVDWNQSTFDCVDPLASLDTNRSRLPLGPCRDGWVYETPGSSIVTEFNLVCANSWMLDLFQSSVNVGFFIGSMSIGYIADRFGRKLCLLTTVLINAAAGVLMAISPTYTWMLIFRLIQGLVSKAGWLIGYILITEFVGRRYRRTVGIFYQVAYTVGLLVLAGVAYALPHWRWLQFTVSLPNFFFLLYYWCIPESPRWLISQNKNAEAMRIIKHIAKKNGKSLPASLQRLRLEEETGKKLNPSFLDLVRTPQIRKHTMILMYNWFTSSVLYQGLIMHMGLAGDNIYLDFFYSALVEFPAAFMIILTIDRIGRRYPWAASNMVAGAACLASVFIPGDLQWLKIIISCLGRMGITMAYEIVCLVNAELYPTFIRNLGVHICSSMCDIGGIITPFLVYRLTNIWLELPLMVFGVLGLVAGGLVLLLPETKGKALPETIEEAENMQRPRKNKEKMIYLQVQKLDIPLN
- test.method.notes: Inhibition of OCT2-mediated oxaliplatin transport in 100% human serum or HBSS containing 4% BSA (IC50,app)
- assay.context: human, MDCK-II cells transfected with human transporters, selectivity between OCT2 and OCT3, MATE1 and MATE2K, oxaliplatin transport
property.label: selectivity ratio

q: # lookup: selectivity ratio of Clc1ccc(COC(Cn2ccnc2)c2ccc(Cl)cc2Cl)c(Cl)c1 (stereo not shown) [Miconazole]
a: > 10
